Here the recorded pKd is given for each entry.
Target: T1, PUF4 RNA-binding domain (Saccharomyces cerevisiae, UniProt P25339 537-888)
T1 sequence: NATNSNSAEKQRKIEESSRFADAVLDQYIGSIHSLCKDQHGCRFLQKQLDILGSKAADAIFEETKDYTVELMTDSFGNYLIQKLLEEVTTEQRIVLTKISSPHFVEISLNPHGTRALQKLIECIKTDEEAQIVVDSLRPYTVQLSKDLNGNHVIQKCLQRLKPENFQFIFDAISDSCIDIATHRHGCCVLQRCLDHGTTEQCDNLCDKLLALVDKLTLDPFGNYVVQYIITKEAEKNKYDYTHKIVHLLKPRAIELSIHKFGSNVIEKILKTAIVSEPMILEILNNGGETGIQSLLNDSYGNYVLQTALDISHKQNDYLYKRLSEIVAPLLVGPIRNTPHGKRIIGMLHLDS
Assay: Mg; RNA-MaP; 20 mM Na-HEPES pH 7.4, 30 mM KOAc, 0.75 mM MgCl2, 0.1% Tween-20, 5% glycerol, 0.1 mg/mL BSA, 2 mM DTT; 25 C; 0.0125-409.6 nM protein
Conditions: tags: N-His6-TEV cleaved; C-SNAP kept, Cy3B-labelled; label: tethered on chip by stalled RNA polymerase
pKd: −log10 of the molar value.
parameter measured: pKd

>>> readout_value("UCUCUUUCUGUAUAUUAAGUCUCUU (ssRNA) [Id_ii_S1_P4E.2_K4.1_C4.2_[C-2T]_[T-1C]_H4.1_A4.1_F4.1_T4.2_[G10A]_[T11G]]")
8.56
>>> readout_value("UCUCUUUCUUGUAAUAUUAUCUCUCUU (ssRNA) [Id_iii_S1_P5E.8_K5.4_C5.3_H5.1_A5.2_F5.1_T5.2_[A12C]]")
8.20
>>> readout_value("Ic_S2_P5E.1_K5.1_C5.1_H5.1_A5.1_[T5G]_[T6C]_[A7C]_F5.1_[T8C]_[A10T]_T5.1 (ssRNA) RNA: UUUGAUUAAUAUGAUAUCGUUCUUUCUUGUAGCCCUUUUCUUUCUCGAUAUCAUAUUAAUCUUU")
6.60
>>> readout_value("Id_ii_S4_P3E.3_K3.2_C3.2_[T-1G]_H3.2_A3.1_F3.1_T3.2_[T9G]_[A10C] (ssRNA) RNA: UUUGACAACUGAUCGUUCUUUCUCGUAUAUAUAGCUUCUUUCUCGAUCAGUUGUCUUU")
6.71
>>> readout_value("Ic_S2_P3E.1_K3.1_C3.1_H3.1_A3.1_[T5A]_[A6C]_F3.1_[T7G]_[A8G]_T3.1 (ssRNA) RNA: UUUGAUUAAUAUGAUAUCGUUCUUUCUUGUAACGGUUCUUUCUCGAUAUCAUAUUAAUCUUU")
6.01
>>> readout_value("UCUCUUUGUAUGUGCCUCUCUU (ssRNA) [Ic_S1_P5E.1_K5.1_C5.1_H5.1_A5.1_[T6G]_[A7T]_F5.1_[T8G]_[T9C]_[A10C]_T5.1]")
6.08
>>> readout_value("Id_ii_S4_P3E.3_K3.2_C3.2_[C-2T]_H3.2_A3.1_F3.1_T3.2 (ssRNA) RNA: UUUGACAACUGAUCGUUCUUUCUUUUAUAUAUAUAUUCUUUCUCGAUCAGUUGUCUUU")
6.93
>>> readout_value("Ie_S4_P3E.2_K3.1_C3.2_[+-1CT]_H3.1_A3.1_F3.1_T3.2 (ssRNA) RNA: UUUGACAACUGAUCGUUCUUUCUCUCUUGUAUAUAUAUUCUUUCUCGAUCAGUUGUCUUU")
9.03
>>> readout_value("UCUCUUUGUAAACAUCUCUU (ssRNA) [Ib_S1_P3E.1_K3.1_C3.1_H3.1_A3.1_[T5A]_F3.1_[T7C]_T3.1]")
6.37
>>> readout_value("Ic_S4_P4E.1_K4.1_C4.1_H4.1_A4.1_[T5C]_[A6T]_[T7G]_F4.1_[T8C]_T4.1 (ssRNA) RNA: UUUGACAACUGAUCGUUCUUUCUUGUACUGCAUUCUUUCUCGAUCAGUUGUCUUU")
6.10
>>> readout_value("UCUCUUUGUAUACAGUCUCUU (ssRNA) [Ic_S1_P4E.1_K4.1_C4.1_H4.1_A4.1_[T7C]_F4.1_[T8A]_[A9G]_T4.1]")
7.02
>>> readout_value("UCUCUUCGUAUAUAUUAAAUCUCUU (ssRNA) [Id_ii_S1_P4E.3_K4.2_C4.2_[T-1G]_H4.2_A4.1_F4.1_T4.2_[G10A]_[T11A]]")
7.29
>>> readout_value("UCUCUUGCACACUAUACUUCUCUU (ssRNA) [Id_ii_S1_P3E.4_K3.3_C3.2_[C-2G]_[T-1C]_H3.3_A3.1_F3.1_T3.2_[T9C]_[A10T]]")
6.91
>>> readout_value("Id_iii_S4_P3E.9_K3.5_C3.3_[T-1A]_H3.1_A3.2_F3.2_T3.2 (ssRNA) RNA: UUUGACAACUGAUCGUUCUUUCUUCAUGUAAAAAUAUUCUUUCUCGAUCAGUUGUCUUU")
7.31
>>> readout_value("UCUCUUAAUAUAUUAUCUCUU (ssRNA) [Ib_S1_P4E.1_K4.1_C4.1_H4.1_[T1A]_[G2A]_A4.1_F4.1_T4.1]")
6.25
>>> readout_value("UCUCUUUGCUUAUAUUAUCUCUU (ssRNA) [Ie_S1_P4E.1_K4.1_C4.1_H4.1_[+2CT]_A4.1_F4.1_T4.1]")
6.06
>>> readout_value("Id_ii_S2_P3E.2_K3.1_C3.2_[C-2T]_[T-1C]_H3.1_A3.1_F3.1_T3.2_[T9C] (ssRNA) RNA: UUUGAUUAAUAUGAUAUCGUUCUUUCUUCUGUAUAUACAUUCUUUCUCGAUAUCAUAUUAAUCUUU")
8.15
>>> readout_value("Ie_S4_P5E.1_K5.1_C5.1_H5.1_[+3T]_A5.1_F5.1_T5.1 (ssRNA) RNA: UUUGACAACUGAUCGUUCUUUCUUGUUAUUAUUAUUCUUUCUCGAUCAGUUGUCUUU")
7.38
>>> readout_value("UCUCUUUGUACGCCUCUCUU (ssRNA) [Ic_S1_P3E.1_K3.1_C3.1_H3.1_A3.1_[T5C]_[A6G]_F3.1_[T7C]_[A8C]_T3.1]")
6.14
>>> readout_value("UCUCUUUGUAAGCCUCUCUU (ssRNA) [Ic_S1_P3E.1_K3.1_C3.1_H3.1_A3.1_[T5A]_[A6G]_F3.1_[T7C]_[A8C]_T3.1]")
5.81
>>> readout_value("UCUCUUGCUGUAUUAUUAUCUCUCUU (ssRNA) [Id_ii_S1_P5E.2_K5.1_C5.2_[C-2G]_[T-1C]_H5.1_A5.1_F5.1_T5.2_[A12C]]")
7.93
>>> readout_value("UCUCUUUGUACCUCUUCUCUU (ssRNA) [Ic_S1_P4E.1_K4.1_C4.1_H4.1_A4.1_[T5C]_[A6C]_F4.1_[T8C]_[A9T]_T4.1]")
6.23
>>> readout_value("UCUCUUUGUACCAUUCUCUU (ssRNA) [Ic_S1_P3E.1_K3.1_C3.1_H3.1_A3.1_[T5C]_[A6C]_F3.1_[T7A]_[A8T]_T3.1]")
8.09
>>> readout_value("Ia_S4_P4E.1_K4.1_C4.1_H4.1_A4.1_[A6T]_F4.1_T4.1 (ssRNA) RNA: UUUGACAACUGAUCGUUCUUUCUUGUAUUUUAUUCUUUCUCGAUCAGUUGUCUUU")
8.91
>>> readout_value("Ib_S4_P5E.1_K5.1_C5.1_H5.1_A5.1_[A7T]_F5.1_[A10T]_T5.1 (ssRNA) RNA: UUUGACAACUGAUCGUUCUUUCUUGUAUUUUUUUUCUUUCUCGAUCAGUUGUCUUU")
7.97
